TARGET OR SYSTEM: G-actin (rabbit skeletal muscle actin) (Oryctolagus cuniculus, UniProt P68135)
PROPERTY NAME: pKd
Answers are plain numbers, as −log10 of the molar value.

Query: Entry CC(C)(O)/C=C/C(=O)[C@](C)(O)[C@H]1[C@H](O)C[C@@]2(C)[C@@H]3CC=C4[C@@H](C=C(O)C(=O)C4(C)C)[C@]3(C)C(=O)C[C@]12C has what pKd?
Result: 7.52

These entries and their values trace back to paper PMC10867458.
